- system: Mouse muscle embryonic nAChR, Thr α150, Leu9′Ser mutation in M2 of the β subunit (Mus musculus, UniProt P02716+P04756+P04760+P09690, L285S)
- Sequence (P04756 21-457): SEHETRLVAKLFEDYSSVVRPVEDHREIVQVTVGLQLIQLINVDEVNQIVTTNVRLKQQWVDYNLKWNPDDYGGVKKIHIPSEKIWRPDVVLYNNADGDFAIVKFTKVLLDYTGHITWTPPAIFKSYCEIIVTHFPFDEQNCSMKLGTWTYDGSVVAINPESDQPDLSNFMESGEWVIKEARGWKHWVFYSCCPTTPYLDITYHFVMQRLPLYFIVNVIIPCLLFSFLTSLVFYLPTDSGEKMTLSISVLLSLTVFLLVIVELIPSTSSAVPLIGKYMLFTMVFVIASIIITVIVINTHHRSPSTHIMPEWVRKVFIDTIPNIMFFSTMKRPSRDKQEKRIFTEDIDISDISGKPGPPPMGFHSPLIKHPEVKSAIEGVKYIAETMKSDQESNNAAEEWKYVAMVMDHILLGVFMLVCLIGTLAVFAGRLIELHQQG
- Sequence (P09690 24-501 L285S): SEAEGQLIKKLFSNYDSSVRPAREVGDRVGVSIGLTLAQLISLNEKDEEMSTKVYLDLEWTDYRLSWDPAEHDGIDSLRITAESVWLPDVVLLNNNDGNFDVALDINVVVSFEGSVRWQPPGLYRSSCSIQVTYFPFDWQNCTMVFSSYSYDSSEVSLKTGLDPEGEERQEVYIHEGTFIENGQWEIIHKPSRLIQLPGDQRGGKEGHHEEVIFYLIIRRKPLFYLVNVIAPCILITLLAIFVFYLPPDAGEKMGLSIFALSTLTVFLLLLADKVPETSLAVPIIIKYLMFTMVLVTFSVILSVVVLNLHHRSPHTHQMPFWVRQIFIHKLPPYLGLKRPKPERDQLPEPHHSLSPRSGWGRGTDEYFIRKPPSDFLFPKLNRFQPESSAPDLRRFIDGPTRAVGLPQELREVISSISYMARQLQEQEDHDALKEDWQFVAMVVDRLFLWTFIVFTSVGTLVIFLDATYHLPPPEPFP
- Sequence (P04760 23-519): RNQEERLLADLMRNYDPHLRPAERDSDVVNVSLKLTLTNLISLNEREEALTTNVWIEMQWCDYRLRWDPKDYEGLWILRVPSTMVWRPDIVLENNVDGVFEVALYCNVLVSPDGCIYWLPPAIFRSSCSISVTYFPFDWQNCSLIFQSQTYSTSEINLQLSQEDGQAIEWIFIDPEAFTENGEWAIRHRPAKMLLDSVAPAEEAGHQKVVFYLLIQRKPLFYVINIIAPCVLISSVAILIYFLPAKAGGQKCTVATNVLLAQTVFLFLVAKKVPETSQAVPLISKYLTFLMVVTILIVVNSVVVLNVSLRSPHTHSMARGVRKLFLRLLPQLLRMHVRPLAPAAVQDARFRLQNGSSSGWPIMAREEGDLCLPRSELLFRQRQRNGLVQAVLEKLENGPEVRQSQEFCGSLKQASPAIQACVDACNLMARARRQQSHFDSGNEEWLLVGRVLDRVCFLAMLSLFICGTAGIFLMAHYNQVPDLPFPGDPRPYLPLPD
- Sequence (P02716 25-520): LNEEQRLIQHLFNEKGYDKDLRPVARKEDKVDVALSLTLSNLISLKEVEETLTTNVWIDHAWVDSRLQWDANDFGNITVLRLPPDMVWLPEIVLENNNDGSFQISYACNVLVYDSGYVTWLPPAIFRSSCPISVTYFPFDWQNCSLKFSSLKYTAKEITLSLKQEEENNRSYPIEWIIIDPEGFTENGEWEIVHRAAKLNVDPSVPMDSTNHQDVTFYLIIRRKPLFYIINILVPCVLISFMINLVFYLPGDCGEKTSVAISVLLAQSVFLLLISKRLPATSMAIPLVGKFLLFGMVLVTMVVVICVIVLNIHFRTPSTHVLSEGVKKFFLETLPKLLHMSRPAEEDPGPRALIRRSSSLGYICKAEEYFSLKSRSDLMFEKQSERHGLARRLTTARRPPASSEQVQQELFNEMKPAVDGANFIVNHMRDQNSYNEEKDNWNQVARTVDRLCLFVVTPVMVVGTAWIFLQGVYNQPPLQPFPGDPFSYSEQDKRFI
- assay notes: cell-based
endpoint label: pEC50
One number for each entry, as −log10 of the molar value.

Data request: Consider the compound CN1CCCC1c1cccnc1 (stereo not shown) and give its measured pEC50.
Data returned: 4.24
